The reported numbers originate from patent US20260234738A1.

target: SARS-CoV-2 Spike Protein (RBD) (R319-F541).mFc (SARS-CoV-2); experiment: Luminex beads, supernatant
Property: MFI (MFI)
Give your result in MFI as a bare value.

Lookup: # lookup: MFI of mAb10984 (antibody, V domains shown) VH: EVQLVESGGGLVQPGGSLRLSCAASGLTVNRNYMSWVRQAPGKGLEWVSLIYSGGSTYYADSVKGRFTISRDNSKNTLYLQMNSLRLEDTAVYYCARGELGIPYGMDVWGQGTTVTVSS VL: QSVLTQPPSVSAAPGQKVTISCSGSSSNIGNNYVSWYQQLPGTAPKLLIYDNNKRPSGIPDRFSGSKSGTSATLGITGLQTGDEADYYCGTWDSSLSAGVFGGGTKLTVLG
Found: 28400

Lookup: Item under review: mAb10954 (antibody, V domains shown) VH: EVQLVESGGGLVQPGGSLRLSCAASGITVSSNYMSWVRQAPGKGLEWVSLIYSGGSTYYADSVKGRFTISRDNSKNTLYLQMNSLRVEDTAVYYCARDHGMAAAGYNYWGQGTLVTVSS VL: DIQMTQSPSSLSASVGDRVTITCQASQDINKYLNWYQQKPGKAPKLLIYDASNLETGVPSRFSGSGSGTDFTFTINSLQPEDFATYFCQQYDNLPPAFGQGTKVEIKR . Reported MFI?
Found: 31300

Lookup: Need MFI, item mAb10986 (antibody, V domains shown) VH: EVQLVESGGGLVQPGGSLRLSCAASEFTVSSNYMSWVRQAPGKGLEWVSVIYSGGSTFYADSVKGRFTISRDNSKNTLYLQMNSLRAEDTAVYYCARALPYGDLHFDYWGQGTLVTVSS VL: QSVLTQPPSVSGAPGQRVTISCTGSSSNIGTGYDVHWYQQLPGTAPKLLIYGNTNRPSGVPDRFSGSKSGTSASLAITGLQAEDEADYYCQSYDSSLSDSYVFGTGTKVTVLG
Found: 28400

Lookup: Entry mAb10913 (antibody, V domains shown) VH: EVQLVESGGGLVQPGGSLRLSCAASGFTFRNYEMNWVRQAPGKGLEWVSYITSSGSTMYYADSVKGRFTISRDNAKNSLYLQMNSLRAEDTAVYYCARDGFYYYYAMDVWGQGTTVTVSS VL: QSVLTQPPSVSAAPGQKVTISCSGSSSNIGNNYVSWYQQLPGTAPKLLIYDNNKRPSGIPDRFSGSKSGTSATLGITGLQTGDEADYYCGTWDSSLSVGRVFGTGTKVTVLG has what MFI?
Found: 33000
